Hello, the source for this data is patent US7060822B1, in case you need it.

The entries below are paired with their reported melting point.
REPORTED ENDPOINT: melting point

* COC(=O)C(Cc1c(C=C2C(=O)NN=C2OC(C)C)[nH]c2ccccc12)NC(C)=O (stereo not drawn) | 205 to 206 °C
* Cc1[nH]c(C=C2C(=O)NN=C2c2cccnc2)c(C)c1CN(C)C | 220 to 224 °C
* Cc1[nH]c(C=C2C(=O)NN=C2c2ccno2)c(C)c1CN1CCCCC1 | 215 to 217 °C
* Cc1[nH]c(C=C2C(=O)NN=C2c2cnccn2)c(C)c1CCCCO | 222 °C
* CCOC1=NNC(=O)C1=Cc1cc(C(=O)O)c[nH]1 | 290 to 293 °C
* CC(C)C1=NNC(=O)C1=Cc1ccc[nH]1 | 120 to 122 °C
* COc1ccc2[nH]c(C=C3C(=O)NN=C3C3CC3)cc2c1 | 221 to 224 °C
* Cc1[nH]c(C=C2C(=O)NN=C2C2CC2)c(C)c1CN(C)C.O=C(O)/C=C\C(=O)O | 199 to 201 °C
* O=C1NN=C(c2c[nH]c3ccccc23)C1=Cc1c[nH]c2ccccc12 | 288 to 292 °C

----------
REPORTED ENDPOINT: melting point

- O=C1NN=C(c2cccnc2)C1=Cc1cc2ccccc2[nH]1: 155 to 157 °C
- O=C1NN=C(c2cccnc2)C1=Cc1c[nH]c2ncccc12: 212 to 215 °C
- CCOC1=NNC(=O)C1=Cc1c[nH]c2ccccc12: 248 to 250 °C
- COc1cccc(CC2=NNC(=O)C2=Cc2ccc[nH]2)c1: 169 to 171 °C
- CC(C)OC1=NNC(=O)C1=Cc1cn(C)c2ccccc12: 239 to 240 °C
- CCc1c(C)[nH]c(C=C2C(=O)NN=C2CCc2ccc(C(N)=O)cc2)c1C: 297 to 299 °C
- COc1ccc2[nH]c(C=C3C(=O)NN=C3c3ccccn3)cc2c1: 170 to 172 °C
- CC(C)OC1=NNC(=O)C1=Cc1ccc(C(=O)O)[nH]1: 235 to 237 °C
- O=C1NN=C(Nc2ccccc2)C1=Cc1ccc[nH]1: 285 to 287 °C
- Cc1[nH]c2ccccc2c1C=C1C(=O)NN=C1OC(C)C: 262 to 264 °C

----------
REPORTED ENDPOINT: melting point

• CCN(CC)CCc1c(C)[nH]c(C=C2C(=O)NN=C2c2cccnn2)c1C = 218 to 220 °C
• O=C1NN=C(Cc2ccc(Cl)cc2)C1=Cc1ccc[nH]1 = 178 to 180 °C
• Cc1cc(C)c(C=C2C(=O)NN=C2c2ccccn2)[nH]1 = 228 to 230 °C
• CCc1c(C)[nH]c(C=C2C(=O)NN=C2c2ccccc2)c1C = 274 to 275 °C
• CCCOC1=NNC(=O)C1=Cc1c[nH]c2ccccc12 = 246 to 247 °C
• O=C1NN=C(c2ccncc2)C1=Cc1c[nH]c2ccccc12 = > 300 °C
• O=C1NN=C(CCc2ccc(O)cc2)C1=Cc1cc2ccccc2[nH]1 = 242 to 245 °C
• Cc1c(CCC(=O)O)c[nH]c1C=C1C(=O)NN=C1OC(C)C = 267 to 269 °C
• O=C1NN=C(CCCc2ccccc2)C1=Cc1c[nH]c2ccccc12 = 218 to 220 °C
• CN(C)c1ccc(C=C2C(=O)NN=C2C2CC2)cc1 = 280 to 289 °C
• COc1ccc2[nH]c(C=C3C(=O)NN=C3OC(C)C)cc2c1 = 219 to 220 °C
• CCOC(=O)c1c(C)[nH]c(C=C2C(=O)NN=C2CCc2ccccn2)c1C = 180 to 182 °C
• CC(C)OC1=NNC(=O)C1=Cc1cccn1CCCCO = 138 to 140 °C
• CC(C)OC1=NNC(=O)C1=Cc1c[nH]c2ncccc12 = 258 to 260 °C
• CCc1c(C)[nH]c(C=C2C(=O)NN=C2c2cnccn2)c1C = 264 to 267 °C
• COc1ccc(CC2=NNC(=O)C2=Cc2ccc[nH]2)cc1 = 179 to 180 °C
• COc1ccc(CC2=NNC(=O)C2=Cc2c[nH]c3ccccc23)cc1OC = 282 to 284 °C
• Cn1cc(C=C2C(=O)NN=C2C2CCOC2)c2ccccc21 (stereo not drawn) = 208 to 210 °C
• CC(C)OC1=NNC(=O)C1=Cc1cc2ccccc2n1C = 254 to 255 °C
• Cc1[nH]c(C=C2C(=O)NN=C2c2cnccn2)c(C)c1CCO = 306 to 308 °C
• O=C1NN=C(C2CC2)C1=Cc1cc2ccccc2[nH]1 = 238 to 240 °C
• CCOC1=NNC(=O)C1=Cc1ccc(C)[nH]1 = 197 to 199 °C
• CCc1c(C)[nH]c(C=C2C(=O)NN=C2CCc2ccc(O)cc2)c1C = 260 to 262 °C
• O=C1NN=C(CCc2ccc(Cl)cc2)C1=Cc1ccc[nH]1 = 193 to 194 °C
• CN(C)c1ccc(C=C2C(=O)NN=C2CCc2ccccc2)cc1 = 224 to 225 °C
• CC(C)OC1=NNC(=O)C1=Cc1ccc(-c2ccccc2)[nH]1 = 212 to 214 °C
• Cc1[nH]c(C=C2C(=O)NN=C2c2ccco2)c(C)c1CN(C)C = 209 to 211 °C
• Cc1[nH]c(C=C2C(=O)NN=C2c2cccs2)c(C)c1CN(C)C = 208 to 210 °C
• CCN(CC)CCc1c(C)[nH]c(C=C2C(=O)NN=C2c2ccncn2)c1C = 220 °C
• O=C1NN=C(C2CCCC2)C1=Cc1c[nH]c2ccccc12 [Example 263] = 300 to 304 °C
• Cc1cccc2c(C=C3C(=O)NN=C3OC(C)C)c[nH]c12 = 254 to 256 °C
• CCOC(=O)c1c(C)[nH]c(C=C2C(=O)NN=C2c2cccnc2)c1C = 247 to 249 °C
• COc1ccc2c(c1)c(C=C1C(=O)NN=C1OC(C)C)cn2C = 238 to 239 °C
• Cc1[nH]c(C=C2C(=O)NN=C2C2CC2)c(C)c1CN(C)C = 176 to 178 °C
• O=C1NN=C(C2CCOC2)C1=Cc1cc2ccccc2[nH]1 (stereo not drawn) = 180 to 183 °C
• CC(C)C1=NNC(=O)C1=Cc1c[nH]c2ccccc12 = 264 to 266 °C
• Cc1c[nH]c(C=C2C(=O)NN=C2c2nc3ccccc3s2)c1 = 327 to 329 °C
• CCOC1=NNC(=O)C1=Cc1cc([N+](=O)[O-])c[nH]1 = 287 to 289 °C
• O=C1NN=C(Cc2ccccc2)C1=Cc1c[nH]c2ccccc12 = 292 to 295 °C

----------
REPORTED ENDPOINT: melting point

* CCN(CC)CC(=O)c1c(C)[nH]c(C=C2C(=O)NN=C2c2cnccn2)c1C | 199 °C
* CCOC(=O)c1ccc(C=C2C(=O)NN=C2OC(C)C)[nH]1 | 205 to 207 °C
* CC(C)OC1=NNC(=O)C1=Cc1cn(C(C)C)c2ccccc12 | 161 to 163 °C
* CCOC(=O)c1c(C)[nH]c(C=C2C(=O)NN=C2c2cccc(N)c2)c1C | 214 to 216 °C
* O=C1NN=C(CCc2ccc(O)cc2)C1=Cc1c[nH]c2ncccc12 | 270 to 272 °C
* COc1ccc2nc(C3=NNC(=O)C3=Cc3c[nH]c4ccccc34)sc2c1 | > 300 °C
* CCOC(=O)c1c[nH]c(C=C2C(=O)NN=C2c2cnccn2)c1-c1ccccc1 | 255 to 257 °C
* CC1CC1C1=NNC(=O)C1=Cc1ccc[nH]1 (centres unmarked) | 132 to 133 °C
* CCOC1=NNC(=O)C1=Cc1ccc(Cl)[nH]1 | 170 to 172 °C
* CCc1c(C)[nH]c(C=C2C(=O)NN=C2c2ccccn2)c1C | 184 to 186 °C
* CC(C)C1=NN(C)C(=O)C1=Cc1c[nH]c2ccccc12 | 241 to 242 °C
* Cc1c[nH]c(C=C2C(=O)NN=C2C(C)C)c1CCC(=O)O | 229 to 231 °C
* Cc1[nH]c(C=C2C(=O)NN=C2c2cnccn2)c(C)c1CN(C)C | 220 to 222 °C
* O=C1NN=C(CCc2ccccc2)C1=Cc1c[nH]c2ccccc12 | 268 to 270 °C
* CCc1ccc(C=C2C(=O)NN=C2C2CC2)[nH]1 | 163 to 165 °C
* CN(C)C(=O)CCC1=NNC(=O)C1=Cc1c[nH]c2ccccc12 | 258 to 260 °C
* COc1ccc(CC2=NNC(=O)C2=Cc2cn(CCCCO)c3ccccc23)cc1 | 204 to 206 °C
* Cc1ccc(OCC2=NNC(=O)C2=Cc2ccc[nH]2)cc1 | 207 to 210 °C
* CC1(C)C(C2=NNC(=O)C2=Cc2ccc[nH]2)C1(C)C | 160 to 162 °C
* COc1cccc(CC2=NNC(=O)C2=Cc2c[nH]c3ccccc23)c1 | 288 to 290 °C
* CC(CC1=NNC(=O)C1=Cc1ccc[nH]1)c1ccccc1 (centres unmarked) | 130 to 131 °C
* COC(=O)CCC1=NNC(=O)C1=Cc1ccc[nH]1 | 134 to 136 °C
* Cc1cc(C=C2C(=O)NN=C2OC(C)C)[nH]c1C | 195 to 197 °C
* O=C1NN=C(COc2ccc(-c3ccccc3)cc2)C1=Cc1ccc[nH]1 | 192 to 194 °C
* CCOC(=O)c1c[nH]c(C=C2C(=O)NN=C2C2CC2)c1-c1ccccc1 | 218 to 220 °C
* Cc1c[nH]c(C=C2C(=O)NN=C2Cc2ccccc2)c1CCC(=O)O | 226 to 228 °C
* CCOC(=O)C1=NNC(=O)C1=Cc1ccc[nH]1 | 177 to 179 °C
* O=C1NN=C(Nc2ccc(F)cc2)C1=Cc1c[nH]c2ccccc12 | 251 to 252 °C
* CCOC1=NNC(=O)C1=Cc1[nH]c(C)c(C(=O)CN(C)C)c1C | 198 °C
* Cc1[nH]c(C=C2C(=O)NN=C2C2CC2)c(C)c1C(=O)OCCN(C)C | 172 to 174 °C
* CCOC(=O)c1c[nH]c(C=C2C(=O)NN=C2OCC)c1 | 212 to 216 °C
* Cc1c[nH]c(C=C2C(=O)NN=C2c2cnccn2)c1C | 245 to 250 °C
* Cc1[nH]c(C=C2C(=O)NN=C2c2ccno2)c(C)c1CN(C)C | 161 to 163 °C
* CCOC(=O)c1c(C)[nH]c(C=C2C(=O)NN=C2CCc2ccc(N)cc2)c1C | 186 to 188 °C
* Cc1cc(C)c(C=C2C(=O)NN=C2OC(C)C)[nH]1 | 176 to 177 °C
* CC(=O)c1c(C)[nH]c(C=C2C(=O)NN=C2OC(C)C)c1C | 209 to 210 °C
* O=C1NN=C(C2CC2)C1=Cc1ccc(C(=O)O)[nH]1 | 220 °C (dec.)
* Cc1[nH]c(C=C2C(=O)NN=C2C2CC2)c(C(C)C)c1CN(C)C | 190 to 192 °C
